experiment: Cell viability of RBL-2H3 cells (parallel MTT); format: cell-based, rat; conditions: rat; 25 μg/ml, RBL-2H3 cells; read-out: Cell viability

test-smiles | viability at 25 μg/ml
C[C@H]1[C@H](C)CC[C@]2(C(=O)O)CC[C@]3(C)C(=CC[C@@H]4[C@@]5(C)CC[C@H](O)C(C)(C)[C@@H]5CC[C@]43C)[C@H]12 | 103%
CC1(C)CC[C@]2(C(=O)O)CC[C@]3(C)C(=CC[C@@H]4[C@@]5(C)C[C@@H](O)[C@H](O)C(C)(C)[C@@H]5CC[C@]43C)[C@@H]2C1 | 84.4%
C[C@@H]1CC[C@]2(C(=O)O)CC[C@]3(C)C(=CC[C@@H]4[C@@]5(C)CC[C@H](O)C(C)(C)[C@@H]5CC[C@]43C)[C@@H]2[C@]1(C)O | 77%
C=C(C)[C@@H]1CC[C@]2(C(=O)O)CC[C@]3(C)[C@H](CC[C@@H]4[C@@]5(C)CC[C@H](O)C(C)(C)[C@@H]5CC[C@]43C)[C@@H]12 | 97.9%
CC1(C)CC[C@]2(C(=O)O)CC[C@]3(C)C(=CC[C@@H]4[C@@]5(C)CC[C@H](O)C(C)(C)[C@@H]5CC[C@]43C)[C@@H]2C1 | 102%
C[C@H]1[C@H](C)CC[C@]2(CO)CC[C@]3(C)C(=CC[C@@H]4[C@@]5(C)CC[C@H](O)C(C)(C)[C@@H]5CC[C@]43C)[C@H]12 | 110%
C[C@H]1[C@H](C)CC[C@]2(C(=O)O)CC[C@]3(C)C(=CC[C@@H]4[C@@]5(C)C[C@@H](O)[C@H](O)C(C)(C)[C@@H]5CC[C@]43C)[C@H]12 | 80.4%
